Target: Cathepsin D (CatD) (Homo sapiens (Human), UniProt P07339)
Sequence (P07339 65-412, species assumed): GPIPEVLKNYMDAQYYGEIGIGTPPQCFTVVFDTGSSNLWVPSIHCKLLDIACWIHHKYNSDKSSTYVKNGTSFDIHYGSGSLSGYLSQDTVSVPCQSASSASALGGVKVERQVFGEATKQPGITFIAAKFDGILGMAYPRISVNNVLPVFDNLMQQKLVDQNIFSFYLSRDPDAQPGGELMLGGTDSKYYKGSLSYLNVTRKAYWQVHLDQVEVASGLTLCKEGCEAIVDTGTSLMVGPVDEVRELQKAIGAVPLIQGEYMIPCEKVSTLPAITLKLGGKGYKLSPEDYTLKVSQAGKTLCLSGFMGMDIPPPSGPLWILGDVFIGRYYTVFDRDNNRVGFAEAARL
QUANTITY_MEASURED: pIC50
# pIC50 is unitless: minus log10 of the molar concentration; print number only

Q) If you can, please state the reported pIC50 value of Cc1cc(C2(c3cccc(-c4cncnc4)c3)N=C(N)N(C)C2=O)ccc1OC(F)F (racemic) .
A) 4.33

###

Recorded PAMPA for the following compounds
Assay: PAMPA
Format: in vitro ADME

Example entries and their recorded answers appear below.
CN1C(=O)C(c2ccc(OCF)cc2)(c2cccc(-c3cncnc3)c2)N=C1N (stereo not shown)
0.30
CN1C(=O)C(c2cccc(-c3cncnc3)c2)(c2ccc3c(c2)OCO3)N=C1N (stereo not shown)
0.30
Cc1cc(C2(c3cccc(-c4cnccn4)c3)N=C(N)N(C)C2=O)ccc1OC(F)F (stereo not shown)
0.68

Q) If you can, please state the reported PAMPA value of CC1CCN(c2cccc(C3(c4ccc(OC(F)F)cc4)N=C(N)N(C)C3=O)c2)C1 (stereo not shown) .
A) 4.53 2-peaks
